# Test system: HN
# measurement_protocol: cells;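 also: growth inhibition of HN cells, read out by a cell viability assay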
# Type: functional, cell-based
# condition_parameters: Homo sapiens
# Description: SANGER: Inhibition of human HN cell growth in a cell viability assay.
observable: IC50

smiles_notation | assay_result
COc1ccc(-c2cc3nccn3c(Nc3ncccc3C(N)=O)n2)cc1OC | > 8000 nM
CC1=C(/C=C/C(C)=C/C=C/C(C)=C/C(=O)O)C(C)(C)CCC1 | > 10000 nM
O=C(NCCCNc1nc(Nc2cccc(NC(=O)N3CCCC3)c2)ncc1I)c1cccs1 | 2120 nM

Moving on to the next compound.
What does the record list as IC50 for Cc1ccc(C(=O)Nc2ccc(CN3CCN(C)CC3)c(C(F)(F)F)c2)cc1C#Cc1cnc2cccnn12 ?
> 512 nM
